activity change overview
PROTOCOL: P. falciparum Dd2 growth inhibitors, primary screen, SYBR Green fluorescence, single dose replicates (AID 1159554)
MEASUREMENT_SETUP: 72 h, at 10 µM, hits give low values
In all, about 94,000 compounds went through this assay and about 2,100 (2.2%) were called active. The full list was thinned out, with actives kept by preference.
ASSAY_METRIC: activity change (%)

INSERT INTO results (compound, unit_info, quantitative_readout) VALUES
  ('COc1ccc2c3c([nH]c2c1)[C@H](CO)N(Cc1cccc(F)c1)CC31CCN(CC2CC2)CC1', '%', -83.2),
  ('CC(C)(C)[S@@](=O)N1Cc2cc(C(=O)N3CCCCC3)nc(-c3cccc(-c4cccc(C#N)c4)c3)c2[C@H]1CCO', '%', -13.7),
  ('COc1ccccc1CNC(=O)C[C@H]1CC[C@@H]2[C@H](COC[C@H](O)CN2Cc2ccccc2)O1', '%', 6.62),
  ('C/C=C/c1cnc2c(c1)C(=O)N([C@@H](C)CO)C[C@H](C)[C@H](CN(C)C(=O)CN1CCOCC1)O2', '%', -2.24),
  ('COc1ccc2c3c([nH]c2c1)[C@@H](CO)N(Cc1cccc(F)c1)CC31CN(CC2CC2)C1', '%', -82.5),
  ('CC(C)NC(=O)Nc1ccc2c(c1)C(=O)N([C@@H](C)CO)C[C@@H](C)[C@@H](CN(C)C(=O)Nc1ccc(C(F)(F)F)cc1)OCCCC[C@H](C)O2', '%', -63.3);
